# measured.on: human MER (intracellular domain, amino acids 528-999, GST fusion) (Homo sapiens (Human))
# details: read-out: Mer kinase IC50; cell-free, ATP concentration of 1 mM
measured.attribute: IC50

Check out these entries, answers already filled in.
1) COc1cc(-c2cnc(N)c(-c3ccc(NC(=O)c4cn(CC5CCOCC5)cc(-c5ccc(C)cn5)c4=O)nn3)c2)ccc1OC[C@H]1COCCO1 [Example 105] = > 4 µM
2) Cc1ccc(-c2cn(CC3CCOCC3)cc(C(=O)Nc3ccc(-c4cc(-c5cnn(C[C@H]6COCCO6)c5)cnc4N)nn3)c2=O)cc1 [Example 108] = > 4 µM
3) Cc1ccc(-c2cn(CC3CCOCC3)cc(C(=O)Nc3ccc(-c4cc(-c5cc(C)nc(C)c5)cnc4N)nc3)c2=O)cc1 [Example 89] = > 4 µM
4) Cc1ccc(-c2cn(CC3CCOCC3)cc(C(=O)Nc3ccc(-c4cc(-c5cnn(C6CCOCC6)c5)cnc4N)nn3)c2=O)cc1 [Example 109] = > 4 µM
5) COc1cc(-c2cnc(N)c(-c3ccc(NC(=O)c4cn(CC5CCOCC5)cc(-c5ccc(C)cc5)c4=O)cn3)c2)c(OC)nn1 [Example 96] = > 4 µM
6) COc1cc(-c2cnc(N)c(-c3ccc(NC(=O)c4cn(CC5CCOCC5)cc(-c5ccc(C)s5)c4=O)nn3)c2)ccc1OC[C@H]1COCCO1 [Example 106] = > 4 µM

Now let's try a different one.
Query: Please give the measured IC50 for this compound: COc1ccc(-c2cnc(N)c(-c3ccc(NC(=O)c4cn(CC5CCOCC5)cc(-c5ccc(OC(F)(F)F)cc5)c4=O)cc3)c2)cc1OC [Example 7]
Reply: > 4 µM

----------
Each entry below lists one item and its recorded pIC50 value.
# measured.on: human MER (intracellular domain, amino acids 528-999, GST fusion) (Homo sapiens (Human), UniProt Q12866)
# Sequence (Q12866 528-999): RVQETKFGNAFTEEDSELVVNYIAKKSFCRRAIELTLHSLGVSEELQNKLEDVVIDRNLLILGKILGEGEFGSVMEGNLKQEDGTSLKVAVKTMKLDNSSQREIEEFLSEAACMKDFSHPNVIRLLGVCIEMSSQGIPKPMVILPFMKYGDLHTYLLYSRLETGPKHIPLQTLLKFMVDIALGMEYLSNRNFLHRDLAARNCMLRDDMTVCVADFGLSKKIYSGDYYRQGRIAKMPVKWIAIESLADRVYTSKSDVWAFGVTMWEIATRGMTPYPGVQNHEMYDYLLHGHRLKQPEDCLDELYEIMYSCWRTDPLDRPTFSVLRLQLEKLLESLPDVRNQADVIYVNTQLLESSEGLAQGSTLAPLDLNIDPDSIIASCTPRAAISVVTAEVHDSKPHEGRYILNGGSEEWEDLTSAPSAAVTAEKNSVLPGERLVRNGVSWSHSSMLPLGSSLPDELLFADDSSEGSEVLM
# details: read-out: Mer kinase IC50; cell-free, ATP concentration of 1 mM
pIC50: −log10 of the molar value.

Check out these entries, answers already filled in.
1) COc1cc(-c2cnc(N)c(-c3ccc(NC(=O)c4cn(CC5CCOCC5)cc(-c5ccc(C)cc5)c4=O)nn3)c2)ccc1OCCN1CCOCC1 [Example 110] = < 5.40
2) COc1ccc(-c2cnc(N)c(-c3ccc(NC(=O)c4cn(CC5CCOCC5)cc(-c5ccc(C)cn5)c4=O)nn3)c2)cc1OC [Example 103] = < 5.40

Now let's try a different one.
Query: Please give the measured pIC50 for this compound: Cc1ccc(-c2cn(CC3CCOCC3)cc(C(=O)Nc3ccc(-c4cc(-c5cnn(CC6CCOCC6)c5)cnc4N)nn3)c2=O)cc1 [Example 102]
Reply: < 5.40
